Hello, the source for this data is patent US20180355014A1, in case you need it.

- Tested Target: HLA-B*08:01 (human)
- Test Method Notes: REVEAL MHC-peptide binding assay, recombinant HLA-B*08:01
- Assay Setup: remark: other sources report otherwise
Test Readout: In Vitro Score (% of positive control peptide)

- IIFWVQRGA [… (SEQ ID NO: 81)]: 0.2
- IFWVQRGAK [… (SEQ ID NO: 82)]: 0.2
- FIIFWVHRG [… (SEQ ID NO: 39)]: 0.2
